In this section, each of the compounds is paired with its reported Pre-emergence action against ORYSA in %.
System: Oryza sativa (ORYSA)
Type: in vivo
Conditions: pre-emergence, 80 g/ha, crop plant compatibility, in comparison to untreated controls
Text: Seeds of monocotyledonous and dicotyledonous weed plants and crop plants are placed in plastic or organic planting pots and covered with soil. […] After about 3 weeks, the effect of the preparations is scored visually in comparison with untreated controls as percentages. […]
attribute.measured: Pre-emergence action against ORYSA in % (%)

compound="O=C(O)CSc1nn(-c2ccccn2)c(-c2cncc(Cl)c2)c1Br [Example I-126]" tgt="Oryza sativa (ORYSA)" test_result=20
compound="CCOC(=O)COc1nn(-c2ncccc2C(F)(F)F)c(-c2cncc(F)c2)c1I [Example I-225]" tgt="Oryza sativa (ORYSA)" test_result=20
compound="COC(=O)CCOC(=O)COc1nn(-c2ncccc2C(F)(F)F)c(-c2ccc(F)nc2)c1Br [Example I-381]" tgt="Oryza sativa (ORYSA)" test_result=20
compound="COC(=O)CCOC(=O)COc1nn(-c2ccnc(Cl)c2)c(-c2ccc(F)nc2)c1Br [III-19]" tgt="Oryza sativa (ORYSA)" test_result=0
compound="COC(=O)CCOC(=O)COc1nn(-c2cccc(C)n2)c(-c2ccc(F)nc2)c1Br [Example I-278]" tgt="Oryza sativa (ORYSA)" test_result=0
compound="C=CCNC(=O)COc1nn(-c2ncccc2F)c(-c2ccc(F)nc2)c1Br [Example I-31]" tgt="Oryza sativa (ORYSA)" test_result=0
compound="Cc1cccc(-n2nc(OCC(=O)O)c(Br)c2-c2ccc(F)nc2)n1 [Example I-376]" tgt="Oryza sativa (ORYSA)" test_result=20
compound="COCCOC(=O)COc1nn(-c2cccc(C)n2)c(-c2ccc(F)nc2)c1Cl [Example I-279]" tgt="Oryza sativa (ORYSA)" test_result=0
compound="COc1cccnc1-n1nc(OCC(=O)O)c(Cl)c1-c1ccc(F)nc1 [Example I-329]" tgt="Oryza sativa (ORYSA)" test_result=0
compound="COC(=O)COc1nn(-c2nc(F)ccc2F)c(-c2ccc(F)nc2)c1Br [Example I-369]" tgt="Oryza sativa (ORYSA)" test_result=20
compound="O=C(O)COc1nn(-c2ccnc(F)c2)c(-c2ccc(F)nc2)c1Br [III-02]" tgt="Oryza sativa (ORYSA)" test_result=0
compound="CCOC(=O)CSc1nn(-c2ccccn2)c(-c2cncc(F)c2)c1C1CC1 [Example I-156]" tgt="Oryza sativa (ORYSA)" test_result=0
compound="O=C(O)CNC(=O)COc1nn(-c2ccnc(F)c2)c(-c2ccc(F)nc2)c1Br [III-26]" tgt="Oryza sativa (ORYSA)" test_result=0
compound="O=C(O)COc1nn(-c2nc(F)ccc2F)c(-c2ccc(F)nc2)c1Cl [Example I-337]" tgt="Oryza sativa (ORYSA)" test_result=20
compound="COCCOC(=O)COc1nn(-c2ncccc2C(F)(F)F)c(-c2ccc(F)nc2)c1Cl [Example I-362]" tgt="Oryza sativa (ORYSA)" test_result=20
compound="O=C(O)COc1nn(-c2ccncc2)c(-c2ccc(F)nc2)c1Br [III-09]" tgt="Oryza sativa (ORYSA)" test_result=0

###

In this section, each of the molecules is paired with its reported Pre-emergence action against ECHCG in %.
Test system: Echinochloa crus-galli (ECHCG)
Assay: Pre-emergence herbicidal action against ECHCG
Type: in vivo
Settings: dosage 320 g/ha
attribute.measured: Pre-emergence action against ECHCG in % (%)

molecule="COC(=O)CCOC(=O)[C@@H](C)Oc1nn(-c2ccccn2)c(-c2ccc(F)nc2)c1Cl [Example I-340]" test_result=100
molecule="C[C@@H](Oc1nn(-c2ncccc2F)c(-c2ccc(F)nc2)c1Br)C(=O)OCc1ccccn1 [Example I-52]" test_result=100
molecule="CCOC(=O)[C@@H](C)Oc1nn(-c2nc(F)ccc2F)c(-c2ccc(F)nc2)c1Br [Example I-336]" test_result=100

###

System: Echinochloa crus-galli (ECHCG)
Experiment: Post-emergence herbicidal action against ECHCG
Assay type: in vivo
Conditions: dosage 320 g/ha
In this section, each of the compounds is paired with its reported Post-emergence action against ECHCG in %.
attribute.measured: Post-emergence action against ECHCG in %

compound_smiles=C#CCOC(=O)COc1nn(-c2ccccn2)c(-c2ccc(F)nc2)c1Br tgt="Echinochloa crus-galli (ECHCG)" test_result=80%
compound_smiles=CCOC(=O)[C@@H](C)Oc1nn(-c2ncccc2F)c(-c2cncc(F)c2)c1Br tgt="Echinochloa crus-galli (ECHCG)" test_result=100%
compound_smiles=COC(=O)COc1nn(-c2ncccc2C)c(-c2cncc(F)c2)c1Br tgt="Echinochloa crus-galli (ECHCG)" test_result=90%
compound_smiles=O=C(O)COc1nn(-c2ncccc2F)c(-c2ccnc(F)c2)c1Br tgt="Echinochloa crus-galli (ECHCG)" test_result=80%
compound_smiles=CSCCOC(=O)COc1nn(-c2ccccn2)c(-c2ccc(F)nc2)c1Br tgt="Echinochloa crus-galli (ECHCG)" test_result=90%
compound_smiles=C[C@@H](Oc1nn(-c2ncccc2F)c(-c2ccc(F)nc2)c1C(F)(F)F)C(=O)O tgt="Echinochloa crus-galli (ECHCG)" test_result=90%
compound_smiles=COc1cccnc1-n1nc(OCC(=O)O)c(Br)c1-c1ccc(F)nc1 tgt="Echinochloa crus-galli (ECHCG)" test_result=80%
compound_smiles=COC(=O)[C@@H](C)Oc1nn(-c2ncccc2F)c(-c2ccc(F)nc2)c1C(F)(F)F tgt="Echinochloa crus-galli (ECHCG)" test_result=90%

###

System: Oryza sativa (ORYSA)
Format: in vivo
Details: crop plant compatibility, 20 g/ha, effect vs untreated controls
In this section, each of the molecules is paired with its reported Post-emergence action against ORYSA in %.
attribute.measured: Post-emergence action against ORYSA in % (%)

molecule=C[C@@H](Oc1nn(-c2ncccc2F)c(-c2cncc(F)c2)c1C1CC1)C(=O)O attribute_measured="Post-emergence action against ORYSA in %" test_result=0
molecule=Cc1ncccc1-n1nc(OCC(=O)OCc2ccccn2)c(Br)c1-c1cncc(F)c1 attribute_measured="Post-emergence action against ORYSA in %" test_result=0
molecule=O=C(O)COc1nn(-c2ccccn2)c(-c2cncc(F)c2)c1Cl attribute_measured="Post-emergence action against ORYSA in %" test_result=0
molecule=COCCOC(=O)COc1nn(-c2ncccc2F)c(-c2ccc(F)nc2)c1C1CC1 attribute_measured="Post-emergence action against ORYSA in %" test_result=0
molecule=O=C(O)COc1nn(-c2ccccn2)c(-c2cncc(F)c2)c1Br attribute_measured="Post-emergence action against ORYSA in %" test_result=0
molecule=CCOC(=O)[C@@H](C)Oc1nn(-c2ncccc2F)c(-c2ccnc(F)c2)c1Br attribute_measured="Post-emergence action against ORYSA in %" test_result=0
molecule=COC(=O)[C@@H](C)Oc1nn(-c2ncccc2F)c(-c2cncc(F)c2)c1Br attribute_measured="Post-emergence action against ORYSA in %" test_result=0
molecule=COC(=O)CN(C)C(=O)COc1nn(-c2ccnc(Cl)c2)c(-c2ccc(F)nc2)c1Br attribute_measured="Post-emergence action against ORYSA in %" test_result=0
molecule="O=C(O)COc1nn(-c2ccccn2)c(-c2ccc(F)nc2)c1Cl [Example I-98]" attribute_measured="Post-emergence action against ORYSA in %" test_result=10
molecule=COC(=O)CNC(=O)COc1nn(-c2ccccn2)c(-c2ccc(F)nc2)c1Cl attribute_measured="Post-emergence action against ORYSA in %" test_result=10
molecule=CCOC(=O)COc1nn(-c2ccccn2)c(-c2ccc(F)nc2)c1C1CC1 attribute_measured="Post-emergence action against ORYSA in %" test_result=0
molecule=COC(=O)[C@@H](C)Oc1nn(-c2ncccc2F)c(-c2cncc(F)c2)c1Cl attribute_measured="Post-emergence action against ORYSA in %" test_result=0
molecule=CCOC(=O)COc1nn(-c2ccccn2)c(-c2ccc(F)nc2)c1I attribute_measured="Post-emergence action against ORYSA in %" test_result=0

###

Tested on: Setaria viridis (SETVI)
Assay: Pre-emergence herbicidal action against SETVI
Assay type: in vivo
Conditions: dosage 80 g/ha
In this section, each of the molecules is paired with its reported Pre-emergence action against SETVI in %.
attribute.measured: Pre-emergence action against SETVI in % (%)

compound_smiles=O=C(O)COc1nn(-c2ccccn2)c(-c2ccnc(F)c2)c1Br tgt="Setaria viridis (SETVI)" test_result=100
compound_smiles=CCOC(=O)COc1nn(-c2ncccc2C)c(-c2ccc(F)nc2)c1Cl tgt="Setaria viridis (SETVI)" test_result=100
compound_smiles=O=C(O)CNC(=O)COc1nn(-c2ccccn2)c(-c2ccc(F)nc2)c1Cl tgt="Setaria viridis (SETVI)" test_result=90
compound_smiles=CCOC(=O)[C@@H](C)Oc1nn(-c2ccccn2)c(-c2cncc(F)c2)c1Cl tgt="Setaria viridis (SETVI)" test_result=100
compound_smiles=COC(=O)CCOC(=O)[C@@H](C)Oc1nn(-c2ccccn2)c(-c2cncc(F)c2)c1Br tgt="Setaria viridis (SETVI)" test_result=90
compound_smiles=O=C(COc1nn(-c2ncccc2F)c(-c2ccc(F)nc2)c1Br)OCc1ccccn1 tgt="Setaria viridis (SETVI)" test_result=90
compound_smiles=C[C@@H](Oc1nn(-c2nc(F)ccc2F)c(-c2cncc(F)c2)c1C1CC1)C(=O)O tgt="Setaria viridis (SETVI)" test_result=100

Ref: patent US20240041042A1
